# System: 786-0 renal
# assay_remarks: NCI tumour cell line growth inhibition, 48 h
observable: GI50

// fetch 786-0 renal GI50 for CN1CCN(C(=O)c2c(NC(=O)NS(=O)(=O)c3ccccc3)sc3c2CCCCC3)CC1 19.2 µM

Record CC(=O)OC(C)(C)/C=C/C(=O)[C@](C)(O)[C@H]1[C@H](O)C[C@@]2(C)[C@@H]3CC=C4[C@@H](C[C@H](O)C(=O)C4(C)C)[C@]3(CO)C(=O)C[C@]12C : what is its GI50 with 786-0 renal? 0.2 µM

Please tell me: GI50 of Cc1cccc(Cl)c1NC(=O)c1cnc(Nc2cc(N3CCOCC3)cc(N3CCOCC3)c2)s1 , system 786-0 renal? 0.0183 µM

---

# System: OVCAR-4 ovarian
# assay_remarks: NCI tumour cell line growth inhibition, 48 h
observable: GI50

Here's what some known entries look like.
compound	GI50
Cc1ccc(C(=O)/C(=C\c2ccc([N+](=O)[O-])cc2)S(=O)Cc2ccc(F)cc2)cc1 (stereo not drawn)	1.73 µM
O=C(Nc1ccc2[nH]c(C(=O)N3CC(CCl)c4c3cc([N+](=O)[O-])c3ccccc43)cc2c1)c1cc2ccccc2o1 (stereo not drawn)	> 1100 µM
COc1ccc2nc3cc([N+](=O)[O-])ccc3c(NCCCN(CCO)CCO)c2c1	3.81 µM
CC(C)[NH-].CC(C)[NH-].O.O.[Cl][Pt+2][Cl]	28.7 µM
COc1cc2c(cc1OC)C(CC1(O)CCCCC1)N(S(=O)(=O)c1ccc(C)cc1)CC2 (stereo not drawn)	> 10 µM

What measured GI50 is associated with Cc1cc([N+](=O)[O-])ccc1NS(=O)(=O)c1cc(Cl)ccc1Cl on OVCAR-4 ovarian? 2.42 µM

What value of GI50 on OVCAR-4 ovarian does COc1cc(F)cc([C@@H](CO)NC(=O)[C@@H](C)N2Cc3ccc(-c4nc(NC5CCOCC5)ncc4Cl)cc3C2=O)c1 have? 7.91 µM

GI50 of O=C1c2cc(-c3ccccc3)ccc2-c2c1c1ccc([N+](=O)[O-])cc1c(=O)n2CCCBr on OVCAR-4 ovarian? > 50 µM

Short answer please: GI50, OVCAR-4 ovarian, entry CC1(C)N=C(N)N=C(N)N1c1ccc(CCc2ccc(Cl)cc2S(=O)(=O)F)c(Cl)c1 9.09 µM

Quick check: GI50 on OVCAR-4 ovarian, item CCN(CC)CCCC(C)Nc1c2ccc(Cl)cc2nc2cc(OC)c(OC)cc12 (stereo not drawn) ? 1.34 µM

Identify the measured GI50 of CN1C(=O)C(=Cc2cn(Cc3ccccc3)c3ccccc23)C(=O)N(C)C1=O for OVCAR-4 ovarian. 5.85 µM

Could you share what GI50 was measured for COc1ccc(-c2nn(-c3cccc(Cl)c3)cc2-c2c(C#N)c(=O)n3[nH]c(-c4ccc(C)cc4)nc3c2C#N)cc1 , tested on OVCAR-4 ovarian? 1.09 µM

Provide the documented GI50 with OVCAR-4 ovarian as the system for O=C1NC(=O)C(c2ccc(Cl)cc2)=C1Nc1ccc(Cl)c(C(=O)O)c1 > 25 µM

# value lookup — system OVCAR-4 ovarian, readout GI50, item O=CC(Br)C(Br)c1ccccc1 (stereo not drawn) 1.69 µM

Quick check: GI50 on OVCAR-4 ovarian, item COc1cc(-c2csc(NC(=O)Nc3cc(C(F)(F)F)cc(C(F)(F)F)c3)n2)cc(OC)c1OC ? 2.68 µM

Please provide the recorded GI50 for O=c1oc(-c2ccccc2)cc2cccc(O)c12 , tested on OVCAR-4 ovarian. > 100 µM

Record lookup: for OVCAR-4 ovarian, what GI50 belongs to O=C1C(Cl)=C(Nc2cccc(O)c2)C(=O)N1Cc1ccc(Cl)cc1 ? 11.2 µM

Return GI50 measured with OVCAR-4 ovarian given this compound: COc1cc2c(cc1OC)-c1ccc3cc4c(cc3c1N(CCN(C)C)C2)OCO4 0.911 µM
